Target: AHR (Mus musculus, UniProt P30561)
Sequence (P30561 1-848 P471L/N533S/M589L): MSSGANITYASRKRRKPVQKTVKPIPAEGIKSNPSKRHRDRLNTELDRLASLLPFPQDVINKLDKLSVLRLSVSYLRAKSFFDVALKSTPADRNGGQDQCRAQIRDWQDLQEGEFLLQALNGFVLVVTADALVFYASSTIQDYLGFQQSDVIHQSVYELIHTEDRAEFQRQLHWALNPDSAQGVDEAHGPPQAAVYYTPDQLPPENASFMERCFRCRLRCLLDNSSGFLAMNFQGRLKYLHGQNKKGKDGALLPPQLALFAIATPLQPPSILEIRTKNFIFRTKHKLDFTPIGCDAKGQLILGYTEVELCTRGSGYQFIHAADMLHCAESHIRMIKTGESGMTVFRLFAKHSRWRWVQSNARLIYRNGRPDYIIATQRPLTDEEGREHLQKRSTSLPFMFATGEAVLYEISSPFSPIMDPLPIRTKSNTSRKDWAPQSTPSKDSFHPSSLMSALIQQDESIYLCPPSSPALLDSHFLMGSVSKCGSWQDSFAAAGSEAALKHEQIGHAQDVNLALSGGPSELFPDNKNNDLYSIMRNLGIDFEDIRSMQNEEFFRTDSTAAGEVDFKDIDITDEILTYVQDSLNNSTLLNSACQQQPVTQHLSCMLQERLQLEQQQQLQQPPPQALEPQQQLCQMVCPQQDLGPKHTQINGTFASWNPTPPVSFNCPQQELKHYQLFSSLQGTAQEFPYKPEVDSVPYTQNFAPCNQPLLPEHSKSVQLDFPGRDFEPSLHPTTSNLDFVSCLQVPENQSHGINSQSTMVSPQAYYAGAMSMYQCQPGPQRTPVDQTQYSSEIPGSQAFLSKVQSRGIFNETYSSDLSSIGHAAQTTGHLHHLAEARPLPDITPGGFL
Test: In vitro assay 3: antagonism in mouse cell line (AHR transactivation, firefly luciferase reporter, kynurenic acid prestimulated)
Format: cell-based
Details: Hepa 1c1c7 cells, 200 μM kynurenic acid, 20 hours, firefly luciferase reporter, read-out: AHR Antagonism Mouse IC50
observable: pIC50
Answers are plain numbers, as −log10 of the molar value.

Completed entries (count: 3):
[[record]]
given_smiles = "CC(C)n1cc(-c2nc3c4cccc(C(F)(F)F)c4nc(N[C@@H]4CS(=O)(=O)CCNC4=O)n3n2)cn1"
experimental_result = 7.18

[[record]]
given_smiles = "CNCCNC(=O)[C@@H](C)Nc1nc2c(Br)cccc2c2nc(-c3ccc(OC)cc3)nn12"
experimental_result = 7.88

[[record]]
given_smiles = "CCn1cc(-c2nc3c4cccc(Br)c4nc(N[C@@H]4CNCCNC4=O)n3n2)cn1"
experimental_result = 8.20


Please give pIC50, item by item, for the list that follows.
1. CCCNC(=O)[C@@H](CC)Nc1nc2c(Br)cccc2c2nc(-c3ccc(Cl)cc3OC(F)F)nn12
2. CCn1cc(-c2nc3c4cccc(Cl)c4nc(N[C@@H]4CCCCNC4=O)n3n2)cn1
3. COCCNC(=O)[C@@H](C)Nc1nc2c(Br)cccc2c2nc(-c3ccc(OC)cc3)nn12

output:
9.02
8.66
8.53

====

Molecular target: UniProtKB P30561
Sequence (P30561 1-848 P471L/N533S/M589L): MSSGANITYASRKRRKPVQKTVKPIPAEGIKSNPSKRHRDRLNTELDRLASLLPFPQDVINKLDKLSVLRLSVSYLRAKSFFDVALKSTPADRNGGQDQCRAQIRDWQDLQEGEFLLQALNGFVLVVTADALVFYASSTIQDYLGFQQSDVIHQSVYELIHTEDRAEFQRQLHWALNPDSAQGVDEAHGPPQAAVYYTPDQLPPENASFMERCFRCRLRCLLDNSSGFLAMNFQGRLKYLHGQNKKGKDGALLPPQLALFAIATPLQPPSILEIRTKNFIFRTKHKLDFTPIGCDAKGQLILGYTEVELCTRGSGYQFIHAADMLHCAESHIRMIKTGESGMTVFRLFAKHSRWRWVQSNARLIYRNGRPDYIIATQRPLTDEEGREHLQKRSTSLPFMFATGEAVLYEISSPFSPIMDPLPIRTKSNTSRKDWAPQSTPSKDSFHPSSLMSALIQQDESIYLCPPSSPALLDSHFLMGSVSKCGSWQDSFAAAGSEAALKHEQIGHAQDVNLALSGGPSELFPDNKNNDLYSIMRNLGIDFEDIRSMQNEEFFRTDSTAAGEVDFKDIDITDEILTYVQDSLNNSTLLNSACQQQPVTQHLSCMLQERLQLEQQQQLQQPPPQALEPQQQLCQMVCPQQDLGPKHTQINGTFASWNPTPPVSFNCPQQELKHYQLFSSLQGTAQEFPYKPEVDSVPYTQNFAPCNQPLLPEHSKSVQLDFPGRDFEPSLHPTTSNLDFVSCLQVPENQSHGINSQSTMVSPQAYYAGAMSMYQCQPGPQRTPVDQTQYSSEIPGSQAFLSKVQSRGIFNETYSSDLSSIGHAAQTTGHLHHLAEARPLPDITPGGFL
Assay: In vitro assay 3: antagonism in mouse cell line (AHR transactivation, firefly luciferase reporter, kynurenic acid prestimulated)
Type: cell-based
Details: mouse Hepa 1c1c7 cells, 200 μM kynurenic acid, 20 hours, read-out: AHR Antagonism Mouse IC50
pIC50: −log10 of the molar value.
If the reported pIC50 equals or exceeds 8, assign satisfied. If not, assign not satisfied.

[[record]]
compound = "O=C1NCCNC[C@H]1Nc1nc2c(Cl)cccc2c2nc(-c3ccc(F)cc3)nn12"
assigned_class = "satisfied"

[[record]]
compound = "COc1ccc(-c2nc3c4ccc(C(F)(F)F)cc4nc(N[C@@H]4CCCCNC4=O)n3n2)cc1"
assigned_class = "not satisfied"

[[record]]
compound = "COc1ccc(-c2nc3c4cccc(C(C)C)c4nc(N[C@@H]4CNCCNC4=O)n3n2)cc1"
assigned_class = "not satisfied"

[[record]]
compound = "Cc1cc(-c2nc3c4ccccc4nc(N[C@@H]4CCCCNC4=O)n3n2)n[nH]1"
assigned_class = "not satisfied"


input: Reported pIC50 reaches at least 8 for COc1cccc(-c2nc3c4ccccc4nc(N[C@@H]4CCCCNC4=O)n3n2)c1 ?
output: satisfied

input: Reported pIC50 reaches at least 8 for CC[C@@H](Nc1nc2ccccc2c2nc(-c3cccc(C#N)c3)nn12)C(N)=O ?
output: satisfied

input: Reported pIC50 reaches at least 8 for Cn1cc(-c2nc3c4cccc(C5CC5)c4nc(N[C@@H]4CCCCNC4=O)n3n2)cn1 ?
output: not satisfied

input: Reported pIC50 reaches at least 8 for CS(=O)(=O)c1ccc(-c2nc3c4ccccc4nc(N[C@@H]4CNCCNC4=O)n3n2)cc1 ?
output: not satisfied

input: Reported pIC50 reaches at least 8 for CC[C@@H](Nc1nc2ccccc2c2nc(-c3cscc3C)nn12)C(N)=O ?
output: satisfied

input: Reported pIC50 reaches at least 8 for Cc1nn(C)cc1-c1nc2c3ccccc3nc(N[C@@H]3CCCCNC3=O)n2n1 ?
output: satisfied

input: Reported pIC50 reaches at least 8 for Cn1cc(-c2nc3c4cccc(C(F)(F)F)c4nc(N[C@@H]4CNCCNC4=O)n3n2)cn1 ?
output: not satisfied

input: Reported pIC50 reaches at least 8 for COc1cccc(-c2nc3c4ccc(F)cc4nc(N[C@H]4CCCNC4=O)n3n2)c1 ?
output: not satisfied

input: Reported pIC50 reaches at least 8 for COc1cccc(-c2nc3c4c(C)cccc4nc(N[C@@H]4CCCCNC4=O)n3n2)c1 ?
output: satisfied

input: Reported pIC50 reaches at least 8 for CCC[C@@H](Nc1nc2ccccc2c2nc(-c3ccncc3F)nn12)C(=O)NC ?
output: not satisfied

====

Target: AHR (Homo sapiens, UniProt P35869)
Construct: U87 MG glioblastoma cells (ATCC #HTB-14) endogenously expressing AHR; endogenous in cells; host or cells: U87 MG glioblastoma cells (ATCC #HTB-14)
Sequence (P35869 11-848): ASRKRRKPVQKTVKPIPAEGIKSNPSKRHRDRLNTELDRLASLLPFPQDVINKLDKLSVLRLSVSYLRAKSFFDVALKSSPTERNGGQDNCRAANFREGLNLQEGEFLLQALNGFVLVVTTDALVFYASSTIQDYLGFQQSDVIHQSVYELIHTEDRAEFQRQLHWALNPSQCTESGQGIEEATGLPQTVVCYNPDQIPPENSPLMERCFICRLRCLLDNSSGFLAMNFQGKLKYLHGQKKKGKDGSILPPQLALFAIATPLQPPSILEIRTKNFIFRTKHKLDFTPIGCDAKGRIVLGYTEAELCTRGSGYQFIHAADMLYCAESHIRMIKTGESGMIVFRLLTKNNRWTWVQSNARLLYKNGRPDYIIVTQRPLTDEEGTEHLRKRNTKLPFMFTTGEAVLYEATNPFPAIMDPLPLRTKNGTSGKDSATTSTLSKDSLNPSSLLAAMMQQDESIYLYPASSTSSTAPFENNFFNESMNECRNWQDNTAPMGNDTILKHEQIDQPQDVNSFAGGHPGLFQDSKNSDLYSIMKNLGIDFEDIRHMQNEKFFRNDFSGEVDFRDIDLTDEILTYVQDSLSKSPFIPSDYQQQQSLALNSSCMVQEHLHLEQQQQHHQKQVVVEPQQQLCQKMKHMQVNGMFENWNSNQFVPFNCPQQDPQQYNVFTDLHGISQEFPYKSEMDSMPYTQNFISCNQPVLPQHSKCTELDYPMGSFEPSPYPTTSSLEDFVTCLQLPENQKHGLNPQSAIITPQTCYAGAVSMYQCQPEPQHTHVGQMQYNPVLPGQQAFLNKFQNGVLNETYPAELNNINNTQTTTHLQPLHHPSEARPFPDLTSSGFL
Test: In vitro assay 1: antagonism in human cell line (AHR transactivation, firefly luciferase reporter, kynurenic acid prestimulated)
Assay type: cell-based
Conditions: AHR Antagonism Human IC50 [M]
observable: IC50 (M)
Numbers only, in M.

Completed entries (count: 2):
[[record]]
compound = "Cc1cc(-c2nc3c4ccccc4nc(N[C@@H]4CCCCNC4=O)n3n2)ccc1F"
measurement_target = "AHR (Homo sapiens, UniProt P35869)"
observable = "IC50"
experimental_result = "9.2e-10"

[[record]]
compound = "Cn1cc(-c2nc3c4ccccc4nc(N[C@@H]4CCCCNC4=O)n3n2)cn1"
measurement_target = "AHR (Homo sapiens, UniProt P35869)"
observable = "IC50"
experimental_result = "1.31e-08"


Please give IC50, item by item, for the list that follows.
1. CCNC(=O)C(CC)Nc1nc2ccccc2c2nc(-c3ccccc3OC(F)(F)F)nn12 (single isomer, unassigned) [Example 664]
2. O=C1NCCCC[C@H]1Nc1nc2ccccc2c2nc(-c3ccccc3C(F)(F)F)nn12

output:
1: 1.26e-08; 2: 1.3e-08
